Origin of measurements: patent US20260210939A1

Target: OR5B12 (Homo sapiens, UniProt Q96R08, C141R)
Construct: Improved functional expression of modified OR-genes containing the truncated, optimized C-terminus; expressed in transfected cells; host or cells: HEK293T stably expressing human RTP1S(V227I) and RTP2(L220R)
Sequence (Q96R08 with tags, fused parts or gaps C141R): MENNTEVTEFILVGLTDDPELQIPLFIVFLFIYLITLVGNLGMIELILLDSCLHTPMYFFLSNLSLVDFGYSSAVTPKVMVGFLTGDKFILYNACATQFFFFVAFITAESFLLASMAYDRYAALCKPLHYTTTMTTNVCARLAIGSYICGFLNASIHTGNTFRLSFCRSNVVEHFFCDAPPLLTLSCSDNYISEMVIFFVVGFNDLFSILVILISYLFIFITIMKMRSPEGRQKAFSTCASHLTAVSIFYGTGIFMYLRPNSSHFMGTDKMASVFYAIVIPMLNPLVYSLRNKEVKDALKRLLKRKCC
Test: CRE-luciferase assay, HEK293T cells expressing OR5B12 (wild-type / modified C-terminus)
Assay type: cell-based
Details: OR5B12 variant, 31 μM Hedione HC
Readout Name: % of the activation by the optimized sequence RNKEVKDALKRLLKRKCC (%)
Output spec: scalar in %, unitless text.

SEQ ID NO: 118 (RNKEVKRAIRKLLKRKCC; source 1..18: note = C-terminal domain sequence)    126.2

IN: Bench note: what % of the activation by the optimized sequence RNKEVKDALKRLLKRKCC did SEQ ID NO: 135 (RNKEVKDALKRLLKRKCCF; source 1..19: note = C-terminal domain sequence) show?
OUT: 207.32

IN: Bench note: what % of the activation by the optimized sequence RNKEVKDALKRLLKRKCC did SEQ ID NO: 149 (RNKEVKDALKRLLKRKCRRR; source 1..20: note = C-terminal domain sequence) show?
OUT: 254.8

IN: Bench note: what % of the activation by the optimized sequence RNKEVKDALKRLLKRKCC did SEQ ID NO: 140 (RNKEVKDALKRLLKRKCCA; source 1..19: note = C-terminal domain sequence) show?
OUT: 230.04
